Measured values drawn from patent US11629201B2 for this set.

- System: PC-3 PIP/flu tumor-bearing mice
- Test summary: Biodistribution studies in PC-3 PIP/flu tumor-bearing mice
- Assay conditions: 4 h p.i.
Reported Stomach values are given for each entry in this list.
Output spec: scalar in % IA/g, unitless text.

* O=C(O)CCC(NC(=O)NC(CCCCNC(=O)C(Cc1ccc2ccccc2c1)NC(=O)C1CCC(CNC(=O)C(CCCCNC(=O)CN2CCN(CC(=O)O)CCN(CC(=O)O)CCN(CC(=O)O)CC2)NC(=O)CC(NC(=O)CC(NC(=O)CCCc2ccc(I)cc2)C(=O)O)C(=O)O)CC1)C(=O)O)C(=O)O (centres unmarked) [^177Lu-PSMA-ALB-05, metal not drawn] | 1.15

Please find the next molecule below.
Asked: Find the recorded Stomach belonging to O=C(O)CCC(NC(=O)NC(CCCCNC(=O)C(Cc1ccc2ccccc2c1)NC(=O)C1CCC(CNC(=O)C(CCCCNC(=O)CCCc2ccc(I)cc2)NC(=O)CN2CCN(CC(=O)O)CCN(CC(=O)O)CCN(CC(=O)O)CC2)CC1)C(=O)O)C(=O)O (centres unmarked) [^177Lu-PSMA-ALB-03, metal not drawn] and report it.
Given back: 2.86
